Origin of values: patent US11622970B2

# test-target: BCL-2 recombinant protein (Homo sapiens, UniProt P10415)
# Sequence (P10415 whole entry): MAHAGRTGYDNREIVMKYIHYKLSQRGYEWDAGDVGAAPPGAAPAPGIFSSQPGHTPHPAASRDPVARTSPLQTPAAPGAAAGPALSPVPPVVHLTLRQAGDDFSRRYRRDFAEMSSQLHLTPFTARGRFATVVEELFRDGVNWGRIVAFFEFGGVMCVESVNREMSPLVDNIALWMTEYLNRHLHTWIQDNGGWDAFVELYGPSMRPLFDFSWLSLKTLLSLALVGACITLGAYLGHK
# test-summary: Cell free Bcl-2:Bak affinity assay (Bcl-2 Bak), HTRF competition of FAM-Bak peptide
# assay-setup: 10-concentration IC50 mode, 4 nM BCL-2 recombinant protein, 100 nM FAM-Bak, read-out: potency (IC50)
property: IC50

Reference set, count: 2
CC1(C)CCC(CN2CCN(c3ccc(S(=O)(=O)NC(=O)c4ccc(F)c(COc5ccc(Cl)cc5)c4)cc3)CC2)=C(c2ccc(Cl)cc2)C1 [Example 37] :: 10 to 100 nM
CCNc1c([N+](=O)[O-])cc(C(=O)NS(=O)(=O)c2ccc(N3CCN(CC4=C(c5ccc(Cl)cc5)CC(C)(C)CC4)CC3)cc2Oc2cnc3[nH]ccc3c2)c(Cl)c1C [Example 99] :: 10 to 100 nM

Okay, now this compound:
API: value(readout= IC50, system= BCL-2 recombinant protein (Homo sapiens, UniProt P10415), query= CC1(C)CCC(CN2CCN(c3ccc(S(=O)(=O)NC(=O)c4cccc([N+](=O)[O-])c4)cc3)CC2)=C(c2ccc(Cl)cc2)C1 [Example 32] )
> 1000 nM

---

# test-target: BCL-2 recombinant protein (Homo sapiens, UniProt P10415)
# test-summary: Cell free Bcl-2:Bak affinity assay (Bcl-2 Bak), HTRF competition of FAM-Bak peptide
# Type: binding
# assay-setup: 1 μM compound, 4 nM BCL-2 recombinant protein, 100 nM FAM-Bak, read-out: potency (% inhibition at 1 μM)
# Experimental: Biological Assays: Cell Free Bcl-2:Bak Affinity Assay (Bcl-2 Bak) The assay is based on the competition of fluorescently labeled peptide binding to BCL-2 and the binding is monitored by HTRF signals between anti-GST-Tb and FAM-peptide using GST-Tag BCL proteins. Testing compounds were dissolved in DMSO at 10 mM and tested in 10-concentration IC50 mode. […] The plate was then sealed and further incubated at room temperature for 60 minutes in the dark before reading. […]
# maps each entry to its inhibition at 1 µM

Cc1cccc(COc2cccc(C(=O)NS(=O)(=O)c3ccc(N4CCN(CC5=C(c6ccc(Cl)cc6)CC(C)(C)CC5)CC4)cc3)c2)c1 [Example 34] :: 50 to 90%
CC1(C)CCC(CN2CCN(c3ccc(S(=O)(=O)NC(=O)c4ccc([N+](=O)[O-])c(Cl)n4)cc3)CC2)=C(c2ccc(Cl)cc2)C1 [Example 2] :: 50 to 90%

// inhibition at 1 µM lookup, key: Cc1nc(C(=O)NS(=O)(=O)c2ccc(N3CCN(CC4=C(c5ccc(Cl)cc5)CC(C)(C)CC4)CC3)cc2)ccc1F [Example 16]
50 to 90%

Input CC1(C)CCC(CN2CCN(c3ccc(S(=O)(=O)NC(=O)CCc4cccnc4)cc3)CC2)=C(c2ccc(Cl)cc2)C1 [Example 31]
< 50%

// query: CC1(C)CCC(CN2CCN(c3ccc(S(=O)(=O)NC(=O)C4(c5ccc([N+](=O)[O-])cc5)CC4)cc3)CC2)=C(c2ccc(Cl)cc2)C1 [Example 29]
< 50%

Same for CC1(C)CCC(CN2CCN(c3ccc(S(=O)(=O)NC(=O)c4ccccn4)cc3)CC2)=C(c2ccc(Cl)cc2)C1 [Example 24]
50 to 90%

Same read-out for CC1(C)CCC(CN2CCN(c3ccc(S(=O)(=O)NC(=O)c4ccc(COc5cc(Cl)ccc5Cl)cc4)cc3)CC2)=C(c2ccc(Cl)cc2)C1 [Example 35] ?
> 90%

Similarly, CC1(C)CCC(CN2CCN(c3ccc(S(=O)(=O)NC(=O)c4ccc(F)c(-c5ccc6[nH]nnc6c5)n4)cc3)CC2)=C(c2ccc(Cl)cc2)C1 [Example 49] ?
> 90%

---

# test-target: BCL-2 recombinant protein (Homo sapiens, UniProt P10415)
# test-summary: Cell free Bcl-2:Bak affinity assay (Bcl-2 Bak), HTRF competition of FAM-Bak peptide
# assay-setup: 10-concentration IC50 mode, 4 nM BCL-2 recombinant protein, 100 nM FAM-Bak, read-out: potency (IC50)
property: IC50

CC1(C)CCC(CN2CCN(c3ccc(S(=O)(=O)NC(=O)c4ccc(CNc5ccc(Cl)cc5)c([N+](=O)[O-])c4)c(Oc4cnc5[nH]ccc5c4)c3)CC2)=C(c2ccc(Cl)cc2)C1 [Example 91] :: 10 to 100 nM
Cc1c(Cl)c(C(=O)NS(=O)(=O)c2ccc(N3CCN(CC4=C(c5ccc(Cl)cc5)CC(C)(C)CC4)CC3)cc2Oc2cnc3[nH]ccc3c2)cc([N+](=O)[O-])c1NCC1CCOCC1 [Example 80] :: < 10 nM
CC1(C)CCC(CN2CCN(c3ccc(S(=O)(=O)NC(=O)c4ccnc5sccc45)c(Oc4cnc5[nH]ccc5c4)c3)CC2)=C(c2ccc(Cl)cc2)C1 [Example 93] :: 10 to 100 nM
CC1(C)CCC(CN2CCN(c3ccc(S(=O)(=O)NC(=O)c4ccc5ccsc5n4)c(Oc4cnc5[nH]ccc5c4)c3)CC2)=C(c2ccc(Cl)cc2)C1 [Example 92] :: 100 to 1000 nM
CC1(C)CCC(CN2CCN(c3ccc(S(=O)(=O)NC(=O)c4ccc(F)c(Br)n4)cc3)CC2)=C(c2ccc(Cl)cc2)C1 [Example 33] :: 10 to 100 nM
Cc1c(Cl)c(C(=O)NS(=O)(=O)c2ccc(N3CCN(CC4=C(c5ccc(Cl)cc5)CC(C)(C)CC4)CC3)cc2Oc2cnc3[nH]ccc3c2)cc([N+](=O)[O-])c1OCC1CCOC1 (centres unmarked) [Example 106] :: < 10 nM
COCc1cc(C(=O)NS(=O)(=O)c2ccc(N3CCN(CC4=C(c5ccc(Cl)cc5)CC(C)(C)CC4)CC3)cc2Oc2cnc3[nH]ccc3c2)cc([N+](=O)[O-])c1 [Example 85] :: 10 to 100 nM
CNc1c([N+](=O)[O-])cc(C(=O)NS(=O)(=O)c2ccc(N3CCN(CC4=C(c5ccc(Cl)cc5)CC(C)(C)CC4)CC3)cc2Oc2cnc3[nH]ccc3c2)c(Cl)c1C [Example 98] :: 10 to 100 nM

Would you mind telling me what IC50 value was observed for CC1(C)CCC(CN2CCN(c3ccc(S(=O)(=O)NC(=O)c4cc(COc5ccc(Cl)cc5)cc([N+](=O)[O-])c4)c(Oc4cnc5[nH]ccc5c4)c3)CC2)=C(c2ccc(Cl)cc2)C1 [Example 86] ?
10 to 100 nM

Also need Cc1cc([N+](=O)[O-])cc(C(=O)NS(=O)(=O)c2ccc(C3=CCN(CC4=C(c5ccc(Cl)cc5)CC(C)(C)CC4)CC3)cc2Oc2cnc3[nH]ccc3c2)n1 [Example 64] , thanks.
> 1000 nM

Proceed to CC1(C)CCC(CN2CCN(c3ccc(S(=O)(=O)NC(=O)c4ccc(COc5ccc(Cl)cc5)c(S(C)(=O)=O)c4)c(Oc4cnc5[nH]ccc5c4)c3)CC2)=C(c2ccc(Cl)cc2)C1 [Example 89]
100 to 1000 nM

---

In this section, each of the compounds is paired with its reported inhibition at 1 µM.
# test-target: BCL-2 recombinant protein (Homo sapiens, UniProt P10415)
# test-summary: Cell free Bcl-2:Bak affinity assay (Bcl-2 Bak), HTRF competition of FAM-Bak peptide
# Assay type: binding
# assay-setup: 1 μM compound, 4 nM BCL-2 recombinant protein, 100 nM FAM-Bak, read-out: potency (% inhibition at 1 μM)

Sample answers from the record:
CC1(C)CCC(CN2CCN(c3ccc(S(=O)(=O)NC(=O)c4ccncc4C(F)(F)F)cc3)CC2)=C(c2ccc(Cl)cc2)C1 [Example 22] :: 50 to 90%
CC1(C)CCC(CN2CCN(c3ccc(S(=O)(=O)NC(=O)c4ccc(Br)cn4)cc3)CC2)=C(c2ccc(Cl)cc2)C1 [Example 13] :: 50 to 90%
Cn1cc(-c2nc(C(=O)NS(=O)(=O)c3ccc(N4CCN(CC5=C(c6ccc(Cl)cc6)CC(C)(C)CC5)CC4)cc3)ccc2F)ccc1=O [Example 58] :: 50 to 90%
COCc1ccc(C(=O)NS(=O)(=O)c2ccc(N3CCN(CC4=C(c5ccc(Cl)cc5)CC(C)(C)CC4)CC3)cc2)cc1 [Example 19] :: 50 to 90%
CC1(C)CCC(CN2CCN(c3ccc(S(=O)(=O)NC(=O)c4cc(-c5ccc(F)cc5)no4)cc3)CC2)=C(c2ccc(Cl)cc2)C1 [Example 25] :: 50 to 90%

Record request: inhibition at 1 µM value, item CC1(C)CCC(CN2CCN(c3ccc(S(=O)(=O)NC(=O)c4cccc(C(F)(F)F)n4)cc3)CC2)=C(c2ccc(Cl)cc2)C1 [Example 21]
50 to 90%
